system tested: Mitogen-activated protein kinase 14 (Homo sapiens)
Sequence (Q16539 whole entry): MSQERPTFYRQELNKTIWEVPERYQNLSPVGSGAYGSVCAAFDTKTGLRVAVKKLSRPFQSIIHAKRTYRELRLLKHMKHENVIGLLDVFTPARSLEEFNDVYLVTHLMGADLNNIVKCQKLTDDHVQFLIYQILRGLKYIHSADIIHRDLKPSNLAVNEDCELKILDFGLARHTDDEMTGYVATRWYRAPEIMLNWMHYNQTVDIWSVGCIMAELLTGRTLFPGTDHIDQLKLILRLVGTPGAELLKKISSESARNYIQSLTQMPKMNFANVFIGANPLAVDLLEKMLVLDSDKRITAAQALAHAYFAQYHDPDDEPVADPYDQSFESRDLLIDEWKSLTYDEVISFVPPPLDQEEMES
assay name: Inhibition of human recombinant Mitogen activated protein kinase p38 alpha activity using ATP[gamma-33P] and EGFR 21mer-peptide
outcome measure: IC50 (nM)

(A) CCc1nc(-c2ccc(F)cc2)c(-c2ccc3nc(N)n(S(=O)(=O)C(C)C)c3c2)[nH]1.CS(=O)(=O)O
(B) CC(C)S(=O)(=O)n1c(N)nc2ccc(-c3[nH]c(C(C)(C)C)nc3-c3ccc(F)cc3)cc21.CS(=O)(=O)O.CS(=O)(=O)O
Consider A and B . Which of these has its IC50 at a higher number? When you have decided, please share the label of that item.
B
(B: 15.9 nM, A: 4.7 nM)

(1) CC(C)S(=O)(=O)n1c(N)nc2ccc(-c3[nH]cnc3-c3ccc(F)cc3)cc21.CS(=O)(=O)O.CS(=O)(=O)O
(2) CC(C)S(=O)(=O)n1c(N)nc2ccc(-c3[nH]c(-c4c(Cl)cccc4Cl)nc3-c3ccccc3)cc21.CS(=O)(=O)O
Select one. Lower IC50: 1 or 2 When you have decided, please share the label of that item.
1
(1: 4.3 nM, 2: 15.3 nM)

(I) CC(C)c1nc(-c2ccc(F)cc2)c(-c2ccc3nc(N)n(S(=O)(=O)C(C)C)c3c2)[nH]1.CS(=O)(=O)O
(II) CC(C)S(=O)(=O)n1c(N)nc2ccc(-c3c(-c4ccc(F)cc4)ncn3C)cc21
Consider I and II . Which of these has its IC50 at a higher number? When you have decided, please share the label of that item.
II

###

The compounds below have reported pIC50 for Cytochrome P450 3A4 (Homo sapiens, UniProt P08684).
pIC50: −log10 of the molar value.
outcome measure: pIC50

CC(C)S(=O)(=O)n1c(N)nc2ccc(-c3nc(-c4c(F)cccc4F)[nH]c3-c3ccccc3)cc21	5.20

(P) CC(C)S(=O)(=O)n1c(N)nc2ccc(-c3[nH]cnc3-c3ccc(F)cc3)cc21.CS(=O)(=O)O.CS(=O)(=O)O
(Q) CC(C)CN1CCC(c2nc(-c3ccc4nc(N)n(S(=O)(=O)C(C)C)c4c3)c(-c3ccccc3)[nH]2)CC1
(R) CC(C)S(=O)(=O)n1c(N)nc2ccc(-c3[nH]c(C(C)(C)C)nc3-c3ccc(F)cc3)cc21.CS(=O)(=O)O.CS(=O)(=O)O
Please list the entries, largest pIC50 first. Rank them, then answer with their labels in that order.
P, Q, R

###

assay name: Area under concentration-curve (from 0-infinity) for a compound in plasma of rats after oral administration
Type: ADME
Design: route oral, time infinity
recorded conditions: rat
outcome measure: AUC 0-inf (µM·h)
Respond numerically; units are µM·h and should not be typed.

Field request: AUC 0-inf | item: CC(C)S(=O)(=O)n1c(N)nc2ccc(-c3nc(-c4c(F)cccc4F)[nH]c3-c3ccccc3)cc21
5.4

###

assay name: Bioavailability of compound in rat plasma after oral administration
Type: ADME, organism-based
outcome measure: bioavailability (%)
Respond numerically; units are % and should not be typed.

Field request: bioavailability | item: CC(C)S(=O)(=O)n1c(N)nc2ccc(-c3[nH]c(-c4c(Cl)cccc4Cl)nc3-c3ccccc3)cc21.CS(=O)(=O)O
55

###

system tested: Mitogen-activated protein kinase 14 (Homo sapiens)
assay name: Inhibition of human recombinant Mitogen activated protein kinase p38 alpha activity using ATP[gamma-33P] and EGFR 21mer-peptide
pIC50: −log10 of the molar value.
outcome measure: pIC50

# example entries with known answers
CC(C)CN1CCC(c2nc(-c3ccc4nc(N)n(S(=O)(=O)C(C)C)c4c3)c(-c3ccccc3)[nH]2)CC1	8.26
CC(C)S(=O)(=O)n1c(N)nc2ccc(-c3nc(C4CCNCC4)[nH]c3-c3ccccc3)cc21	8.57
CS(=O)(=O)O.CS(=O)(=O)O.Nc1nc2ccc(-c3[nH]c(-c4c(F)cccc4F)nc3-c3ccccc3)cc2n1S(=O)(=O)C1CCCC1	7.70
CC(C)S(=O)(=O)n1c(N)nc2ccc(-c3[nH]c(C(C)(C)C)nc3-c3ccc(F)cc3F)cc21.CS(=O)(=O)O	8.36
CC(C)S(=O)(=O)n1c(N)nc2ccc(-c3[nH]cnc3-c3ccccc3)cc21	8.38
CC(C)S(=O)(=O)n1c(N)nc2ccc(-c3c(-c4ccc(F)cc4)ncn3C3CCNCC3)cc21	6.90

(A) CC(C)(C)c1nc(-c2ccc(F)cc2F)c(-c2ccc3nc(N)n(S(=O)(=O)C(C)(C)C)c3c2)[nH]1.CS(=O)(=O)O
(B) CN(C)S(=O)(=O)n1c(N)nc2ccc(-c3[nH]c(-c4c(F)cccc4F)nc3-c3ccccc3)cc21.CS(=O)(=O)O.CS(=O)(=O)O
Select one. Lower pIC50: A or B When you have decided, please share the label of that item.
B

The measured values listed here are drawn from ChEMBL document CHEMBL1143559.
